test_method_notes: The concentration required to inhibit the binding of [3H]ATRA to retinoic acid receptor in human promyelocytic leukemia cells
pIC50: −log10 of the molar value.
Recorded pIC50 by entry

| compound | relation_operator | pIC50 |
| --- | --- | --- |
| CC1(C)CCC(C)(C)c2cc3c(cc21)CCc1c(-c2ccc(C(=O)O)cc2)csc1-3 | < | 8.30 |
| CC1(C)CCC(C)(C)c2cc3c(cc21)CCc1c(-c2ccc(C(=O)O)cc2)nn(Cc2cccnc2)c1-3 | = | 9.04 |
| CC1(C)CCC(C)(C)c2cc3c(cc21)CCCc1c(-c2ccc(C(=O)O)cc2)cn(Cc2cccnc2)c1-3 | = | 8.33 |
| CC1(C)CCC(C)(C)c2cc3c(cc21)CCc1c(-c2ccc(C(=O)O)cc2)nn(Cc2ccccc2)c1-3 | = | 8.82 |
| Cc1cc2c(cc1OC(C)C)-c1c(c(-c3ccc(C(=O)O)cc3)cn1Cc1cccnc1)CC2 | = | 8.43 |
| Cn1nc2c(c1-c1ccc(C(=O)O)cc1)CCc1cc3c(cc1-2)C(C)(C)CCC3(C)C | = | 7.10 |
| CC(C)Oc1cc2c(cc1C(C)C)CCc1c(-c3ccc(C(=O)O)cc3)cn(Cc3cccnc3)c1-2 | = | 9.01 |
| CC1(C)CCC(C)(C)c2cc3c(cc21)CCc1c(-c2ccc(C(=O)O)cc2)n[nH]c1-3 | = | 7.77 |
| CC1(C)CCC(C)(C)c2cc3c(cc21)CCc1c(-c2ccc(C(=O)O)cc2)cn(CC24CC5CC(CC(C5)C2)C4)c1-3 | < | 7.30 |
| CC1(C)CCC(C)(C)c2cc3c(cc21)CCc1c(-c2ccc(C(=O)O)cc2)cn(-c2cccnc2)c1-3 | = | 9.23 |
| CC1(C)CCC(C)(C)c2cc3c(cc21)CCc1c(-c2ccc(C(=O)O)cc2)cnnc1-3 | < | 7.30 |
| COc1ccncc1-n1cc(-c2ccc(C(=O)O)cc2)c2c1-c1cc3c(cc1CC2)C(C)(C)CCC3(C)C | = | 8.25 |
| CC1(C)CCC(C)(C)c2cc3c(cc21)CCc1c(-c2ccc(C(=O)O)cc2)cn(Cc2ccccn2)c1-3 | = | 9.85 |
| CC1(C)CCC(C)(C)c2cc3c(cc21)CCc1c(-c2ccc(C(=O)O)cc2)cn(Cc2ccco2)c1-3 | = | 8.47 |
| CC1(C)CCSc2cc3c(cc21)CCc1c(-c2ccc(C(=O)O)cc2)cn(Cc2cccnc2)c1-3 | = | 7.89 |
| CC1(C)CCC(C)(C)c2cc3c(cc21)SCc1c(-c2ccc(C(=O)O)cc2)cn(Cc2cccnc2)c1-3 | = | 9.80 |
| CC1(C)CCC(C)(C)c2cc3c(cc21)CCc1c(-c2ccc(C(=O)O)cc2)cn(Cc2cccs2)c1-3 | = | 8.35 |
| CC(C)Oc1cc2c(cc1Cl)CCc1c(-c3ccc(C(=O)O)cc3)cn(Cc3cccnc3)c1-2 | = | 8.54 |
| CC1(C)CCC(C)(C)c2cc3c(cc21)OCc1c(-c2ccc(C(=O)O)cc2)cn(Cc2cccnc2)c1-3 | = | 7.72 |
| CC1=C(/C=C/C(C)=C/C=C/C(C)=C/C(=O)O)C(C)(C)CCC1 [TRETINOIN] | = | 9.20 |
| CC1(C)CCC(C)(C)c2cc3c(cc21)CCc1c(-c2ccc(C(=O)O)cc2)cn(Cc2cccnc2)c1-3 | = | 9.47 |
| CC1(C)CCC(C)(C)c2cc3c(cc21)CCc1c(-c2ccc(C(=O)O)cc2)cn(CCc2ccccn2)c1-3 | = | 7.80 |
| CC1(C)CCC(C)(C)c2cc3c(cc21)CCc1c(-c2ccc(C(=O)O)cc2)cn(C2CC2)c1-3 | = | 7.85 |
| CC1(C)CCC(C)(C)c2cc3c(cc21)CCc1c(-c2ccc(C(=O)O)cc2)cn(Cc2ccccc2)c1-3 | = | 8.92 |
| CCCCCn1cc(-c2ccc(C(=O)O)cc2)c2c1-c1cc3c(cc1CC2)C(C)(C)CCC3(C)C | = | 7.72 |
| Cn1nc(-c2ccc(C(=O)O)cc2)c2c1-c1cc3c(cc1CC2)C(C)(C)CCC3(C)C | = | 7.80 |
| CC1(C)CCC(C)(C)c2cc3c(cc21)CCc1c(-c2ccc(C(=O)O)cc2)cn(Cc2ccncc2)c1-3 | = | 8.64 |
| CC1(C)Cc2c(-c3ccc(C(=O)O)cc3)cn(Cc3cccnc3)c2-c2cc3c(cc21)C(C)(C)CCC3(C)C | < | 7.30 |
| CC1(C)CCOc2cc3c(cc21)CCc1c(-c2ccc(C(=O)O)cc2)cn(Cc2cccnc2)c1-3 | < | 7.30 |
| CC1(C)CCC(C)(C)c2cc(-c3cc(-c4ccc(C(=O)O)cc4)[nH]n3)ccc21 | = | 7.72 |
| Cn1cc(-c2ccc(C(=O)O)cc2)c2c1-c1cc3c(cc1CC2)C(C)(C)CCC3(C)C | < | 7.30 |
| COc1cc2c(cc1C(C)C)CCc1c(-c3ccc(C(=O)O)cc3)cn(Cc3cccnc3)c1-2 | = | 7.66 |
| CC1(C)CCC(C)(C)c2cc3c(ccc4c(-c5ccc(C(=O)O)cc5)cn(Cc5cccnc5)c43)cc21 | = | 7.96 |
| CC1(C)CCC(C)(C)c2cc3c(cc21)CCc1c(-c2ccc(C(=O)O)cc2)cn(-c2cnccc2Cl)c1-3 | = | 8.49 |
